- target_or_test_system: mouse EphA4-Fc (R&D Systems) (mouse, UniProt Q03137 20-547)
- Sequence (Q03137 20-547): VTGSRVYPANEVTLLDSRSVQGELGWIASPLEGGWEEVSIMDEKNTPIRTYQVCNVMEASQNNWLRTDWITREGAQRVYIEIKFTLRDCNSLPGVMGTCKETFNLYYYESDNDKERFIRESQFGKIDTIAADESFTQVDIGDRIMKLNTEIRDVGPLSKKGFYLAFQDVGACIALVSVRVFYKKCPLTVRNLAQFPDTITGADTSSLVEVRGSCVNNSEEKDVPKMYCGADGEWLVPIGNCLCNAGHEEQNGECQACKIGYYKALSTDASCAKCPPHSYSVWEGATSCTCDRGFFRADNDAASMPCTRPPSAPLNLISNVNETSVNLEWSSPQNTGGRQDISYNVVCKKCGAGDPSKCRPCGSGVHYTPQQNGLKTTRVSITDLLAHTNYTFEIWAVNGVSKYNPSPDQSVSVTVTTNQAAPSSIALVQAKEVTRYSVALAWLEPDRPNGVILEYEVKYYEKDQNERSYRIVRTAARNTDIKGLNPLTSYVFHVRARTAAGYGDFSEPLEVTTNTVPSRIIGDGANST
- test: SPR
recorded_metric: pKd
Here pKd is given on a logarithmic scale as minus log10 of the concentration in mol/L.

binder	pKd
Nb 31 (VHH, biotin on primary amines (EZ link NHS biotin) in the Eph receptor selectivity AlphaScreen only) VHH: QVQLQESGGGLVQAGGSLRLSCAASGFASDAYAIGWFRQAPGTKREMIAAVTKAGATNYANPVKGRFTISRDDAKNMVYLQMNNLKPEDSAVYYCNAISPLWDEYDFWGPGTQVTVSS	6.59
Nb 50 (VHH, biotin on primary amines (EZ link NHS biotin) in the Eph receptor selectivity AlphaScreen only) VHH: QVQLQESGGGLVQAGGSLRLSCAASGRTFNSYAEAWFRQAPGKEREMIAAVTKAGTTNYANPVKGRFTISRDDAKNMVYLQMNNLKPEDSAVYYCNAISPLWDEYDFWGPGTQVTVSS	6.98
Nb 60 (VHH, biotin on primary amines (EZ link NHS biotin) in the Eph receptor selectivity AlphaScreen only) VHH: QVQLQESGGGLVQPGGSLRLSCAASGFTFSRYWIYWVRQAPGKQRELVAAITRNGVTNYADSVKGRFTISTDDNKNTVYLQMNSLKSEDTAVYYCNAWGFLLGDIEDYWGQGTQVTVSS	7.56
Nb 34 (VHH) VHH: QVQLQESGGGLVQAGGSLRLSCAASGFTFSSYAMSWVRQAPGKGLEWVSGINTGGGSTYYADSVKGRFTISRDNAKNTLYLQMNSLKSEDTAVYYCVPRVGVLEGLTSFGSWGQGTQVTVSS	4.57

Short answer for Nb 57 (VHH, biotin on primary amines (EZ link NHS biotin) in the Eph receptor selectivity AlphaScreen only) VHH: QVQLQESGGGLVQPGGSLRLSCAASGFTFSSYYMYWVRQAPGKGLEWVSTINTGGGSTNYADSVKGRFIISRDNAKNTVYLQMNSLKPEDTAVYYCNAFAAGWGPDYWGQGTQVTVSS : pKd was 7.42
